- Experimental System: T1, alpha subunit of the human FcεRI receptor expressed on Chinese hamster ovary cells (human, UniProt P12319 26-257)
- T1 construct: whole, on cells; also called CHO FcεRI+ cells
- T1 sequence (looked up): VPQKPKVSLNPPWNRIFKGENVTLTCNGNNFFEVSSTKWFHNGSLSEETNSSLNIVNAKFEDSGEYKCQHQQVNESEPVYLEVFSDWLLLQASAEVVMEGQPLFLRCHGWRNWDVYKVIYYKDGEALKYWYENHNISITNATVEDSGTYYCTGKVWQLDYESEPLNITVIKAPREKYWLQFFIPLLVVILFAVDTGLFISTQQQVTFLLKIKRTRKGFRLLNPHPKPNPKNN
- Method Summary: inhibition of 125I-IgE binding to CHO cells expressing human FcεRI alpha subunit
Bridges are numbered along the chain shown (N, C = ends). Where no end group is shown, it is not given here. [ ]: non-standard residue; d: D form. The star is where a group is joined. Oic = O=C(O)[C@@H]1C[C@@H]2CCCC[C@@H]2N1; Hyp = O=C(O)[C@@H]1C[C@@H](O)CN1; hSer(lactone) = O=C1OCC[C@@H]1N*
Measurement Type: pIC50
Just so you know, pIC50 here is -log10 of the concentration in molar units; reply with that number alone.

# example entries with known answers
Give a short answer stating reported pIC50 for CTEGPWGWFCI-NH2 (disulfide 1-10 (inferred), synthetic) [IGE047] .
3.13

Give a short answer stating reported pIC50 for Ac-NLPRCTEG[Hyp]WGWVCM (disulfide 5-14 (inferred), synthetic) [IGE101] .
3.24

Give a short answer stating reported pIC50 for NLPRCTEGPWGWVCI (disulfide 5-14 (inferred), synthetic) [IGE075] .
5.85

Give a short answer stating reported pIC50 for Ac-NLPRCTEGPWGWVC[hSer(lactone)] (disulfide 5-14 (inferred)) [IGE133] .
5.60

Give a short answer stating reported pIC50 for Ac-NLPRCTEG[Oic]WGWVCM (disulfide 5-14 (inferred), synthetic) [IGE100] .
3.44

***
Give a short answer stating reported pIC50 for NLPRCTEGPWGWVCM-NH2 (disulfide 5-14 (inferred), synthetic) [IGE057] .
6.10
